This listing pairs compounds with measured concentration at 8 h.
EXPERIMENT_SUMMARY: Drug level in human MDA-MB-361 cells xenografted nude mouse at 25 mg/kg, iv after 8 hrs
Type: ADME, organism-based
Parameters: dose 25 mg/kg, route intravenous
EXPERIMENTAL_CONTEXT: blood, read-out: Drug uptake
API: value field is a number in µg/mL; no unit string.

CN1CCN(C(=O)c2ccc(NC(=O)Nc3ccc(-c4nc(N5CCOCC5)c5ccn(CC(F)(F)F)c5n4)cc3)cc2)CC1: 1.68

Exercise: What concentration at 8 h value was documented for this compound, `CN(C)CCN(C)C(=O)c1ccc(NC(=O)Nc2ccc(-c3nc(N4CCOCC4)c4ccn(CC(F)(F)F)c4n3)cc2)cc1` ?
Key: 1.73
